Entries and their measured MIC80 follow.
System: Cryptococcus neoformans
Experiment: Antimicrobial activity against Cryptococcus neoformans ATCC 52657
Assay type: functional
The figure you give is taken to be in µg/mL; do not add the unit.

CC[n+]1ccc2c3c(nc4ccccc42)-c2ccccc2-c31.[I-] :: 12.5
[Br-].c1ccc(C[n+]2ccc3c4c(nc5ccccc53)-c3ccccc3-c42)cc1 :: 12.5
CC[n+]1c2c3c(nc(-c4ccccc4)cc3c3ccccc31)-c1ccccc1-2.[Br-] :: 0.39
Cc1cc2cc[n+](C)c3c2c(n1)-c1ccccc1-3.[I-] :: 50

Here's the next entry for you.
Entry [Br-].c1ccc(C[n+]2ccc3ccnc4c3c2-c2ccccc2-4)cc1 needs its MIC80 filled in; supply it. 1.56

###

Assay: Selectivity index, ratio of IC50 for human DNA topoisomerase 1 to IC50 for Candida albicans DNA topoisomerase 1
Assign class by Ratio IC50: not lower than 1 means y; lower than 1 means n.

Would you please look over these solved cases?
CCOC(=O)C[n+]1ccc2c3c(nc4ccccc42)-c2ccccc2-c31.[Br-] :: n
COc1cc(C[n+]2ccc3ccnc4c3c2-c2ccccc2-4)cc(OC)c1.[Br-] :: n
Clc1cccc(C[n+]2ccc3ccnc4c3c2-c2ccccc2-4)c1.[Br-] :: n

Proceed to the following item.
Assess whether reported Ratio IC50 for C[n+]1ccc2cc(-c3ccccc3)nc3c2c1-c1ccccc1-3.[I-] sits at 1 or higher. y

###

Assay: Cytotoxicity against human SKOV3 cells assessed as cell growth inhibition after 48 hrs by neutral red dye based assay
Format: functional
Settings: SK-OV-3, 48 h
Criterion: IC50 strictly under 2 µg/mL. Met: Condition met. Not met: Condition not met.

Would you kindly verify if IC50 of CCOC(=O)C[n+]1ccc2c3c(nc4ccccc42)-c2ccccc2-c31.[Br-] is strictly less than 2 µg/mL? Condition not met

Just wondering, is IC50 of CC[n+]1c2c3c(nc(-c4ccccc4)cc3c3ccccc31)-c1ccccc1-2.[Br-] below 2 µg/mL? Condition not met

Dear reviewer, please state whether COc1ccc2c(c1)-c1c3c-2nccc3cc[n+]1Cc1ccccc1.[Br-] has IC50 strictly beneath 2 µg/mL. Condition met

Is the reported IC50 for [Br-].c1ccc(C[n+]2ccc3ccnc4c3c2-c2ccccc2-4)cc1 strictly below 2 µg/mL? Condition met

###

Tested on: Plasmodium falciparum
Experiment: Antimalarial activity against Plasmodium falciparum D6 infected in RBC after 48 hrs by lactate dehydrogenase assay
Type: functional
Conditions: D6, 48 h
Examples of compounds with documented IC50 follow.
Phrase the answer as number then unit, nothing more needed.

Please review the following examples before continuing.
Brc1cccc(C[n+]2ccc3ccnc4c3c2-c2ccccc2-4)c1.[Br-] :: 0.013 µg/mL
O=[N+]([O-])c1ccc(C[n+]2ccc3ccnc4c3c2-c2ccccc2-4)cc1.[Br-] :: 0.035 µg/mL
CC[n+]1ccc2ccnc3c2c1-c1ccccc1-3.[I-] :: 0.0475 µg/mL
COc1ccc2c(c1)-c1c3c-2nccc3cc[n+]1Cc1ccccc1.[Br-] :: 0.032 µg/mL

Shifting focus to the compound that follows.
Supply reported IC50 belonging to this compound: NC(=O)C[n+]1ccc2ccnc3c2c1-c1ccccc1-3.[Br-] 0.09 µg/mL

###

Assay: Selectivity index, ratio of IC50 for human DNA topoisomerase 1 to IC50 for Candida albicans DNA topoisomerase 1
Mark each entry Satisfied if its Ratio IC50 sits below 0.9, and Not satisfied for all others.

C[n+]1ccc2ccnc3c2c1-c1ccccc1-3.[I-] :: Not satisfied
Cc1cc2cc[n+](C)c3c2c(n1)-c1ccccc1-3.[I-] :: Not satisfied

Determine whether this compound shows Ratio IC50 lower than 0.9 (ties excluded): Cc1cc(C)cc(CS(=O)(=O)[O-])c1.N[n+]1ccc2ccnc3c2c1-c1ccccc1-3 Satisfied

Confirm or reject: Ratio IC50 of [Br-].c1ccc(C[n+]2ccc3c4c(nc5cc6c(cc53)OCO6)-c3ccccc3-c42)cc1 lies strictly below 0.9 Not satisfied

In plain terms, does c1ccc2c(c1)-c1nccc3ccnc-2c13 [EUPOLAURIDINE] come in under 0.9 for Ratio IC50? Not satisfied

Bench note: check whether COc1ccc2c(c1)-c1c3c-2nccc3cc[n+]1Cc1ccccc1.[Br-] shows Ratio IC50 below 0.9 Not satisfied

Say whether its Ratio IC50 is strictly beneath 0.9. Entry: C[n+]1c2c3c(nc(-c4ccccc4)cc3c3ccccc31)-c1ccccc1-2.[I-] Satisfied

Lab log: compare recorded Ratio IC50 with 0.9; is it strictly lower for Cc1ccc2c(c1)-c1c3c-2nccc3cc[n+]1Cc1ccccc1.[Br-] ? Satisfied

###

Target: DNA topoisomerase 1 (Homo sapiens)
Sequence (P11387 whole entry): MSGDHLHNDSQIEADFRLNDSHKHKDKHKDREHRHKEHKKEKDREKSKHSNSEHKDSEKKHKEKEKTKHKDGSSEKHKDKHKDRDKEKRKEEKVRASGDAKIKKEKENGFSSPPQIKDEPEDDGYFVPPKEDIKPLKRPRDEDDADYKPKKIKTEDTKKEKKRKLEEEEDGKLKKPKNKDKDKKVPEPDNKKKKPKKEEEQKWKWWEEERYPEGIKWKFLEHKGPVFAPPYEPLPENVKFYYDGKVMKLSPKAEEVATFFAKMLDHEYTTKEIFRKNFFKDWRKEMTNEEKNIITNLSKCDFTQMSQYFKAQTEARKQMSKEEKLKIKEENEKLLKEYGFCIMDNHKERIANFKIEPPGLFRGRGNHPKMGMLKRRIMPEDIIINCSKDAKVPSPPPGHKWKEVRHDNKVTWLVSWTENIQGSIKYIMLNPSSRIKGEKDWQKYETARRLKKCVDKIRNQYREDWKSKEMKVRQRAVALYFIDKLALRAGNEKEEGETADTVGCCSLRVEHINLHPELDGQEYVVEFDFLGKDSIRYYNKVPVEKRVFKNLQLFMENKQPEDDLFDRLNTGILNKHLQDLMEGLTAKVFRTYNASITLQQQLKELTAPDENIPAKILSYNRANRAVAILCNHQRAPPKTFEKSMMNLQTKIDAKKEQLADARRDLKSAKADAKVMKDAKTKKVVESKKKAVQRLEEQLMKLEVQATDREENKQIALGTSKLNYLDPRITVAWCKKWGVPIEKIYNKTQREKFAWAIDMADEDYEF
pIC50: −log10 of the molar value.
Label label 1 for high-side pIC50 (at or above 5) and label 0 for low-side pIC50 (below it).

Please review the following examples before continuing.
C[n+]1ccc2c3c(nc4ccccc42)-c2ccccc2-c31.[I-] :: label 1
C[n+]1ccc2cc(-c3ccccc3)nc3c2c1-c1ccccc1-3.[I-] :: label 0
[Br-].c1ccc(C[n+]2ccc3c4c(nc5ccccc53)-c3ccccc3-c42)cc1 :: label 1
C[n+]1ccc2ccnc3c2c1-c1ccccc1-3.[I-] :: label 0
C[n+]1c2c3c(nc(-c4ccccc4)cc3c3ccccc31)-c1ccccc1-2.[I-] :: label 1
[Br-].c1ccc2c(c1)-c1nccc3cc[n+](Cc4ccc5ccccc5c4)c-2c13 :: label 0
COc1cc(C[n+]2ccc3ccnc4c3c2-c2ccccc2-4)cc(OC)c1.[Br-] :: label 0
Fc1ccc(C[n+]2ccc3ccnc4c3c2-c2ccccc2-4)c(F)c1.[Br-] :: label 0

API: above_or_equal(metric=pIC50, cutoff=5) for item c1ccc2c(c1)-c1nccc3ccnc-2c13 label 0

Entry [Br-].c1ccc(C[n+]2ccc3ccnc4c3c2-c2ccccc2-4)cc1 : is its pIC50 no less than 5? label 0

Please indicate if the recorded pIC50 for C[n+]1ccc2c3c(nc4ccccc42)-c2ccccc2-c31.Cc1ccc(S(=O)(=O)[O-])cc1 meets or exceeds 5. label 1

Does the molecule O=[N+]([O-])c1ccc(C[n+]2ccc3ccnc4c3c2-c2ccccc2-4)cc1.[Br-] have recorded pIC50 that is 5 or more? label 0

Could you please find out whether Cc1ccc(C[n+]2ccc3ccnc4c3c2-c2ccccc2-4)cc1.[Br-] has pIC50 that meets 5 or exceeds it? label 0

Assess whether reported pIC50 for Cc1cc2c3c(nc4ccccc42)-c2ccccc2-c3[n+]1C.[I-] sits at 5 or higher. label 1

Check this molecule for pIC50 at or above 5: CC[n+]1ccc2ccnc3c2c1-c1ccccc1-3.[I-] label 0

Is the recorded value of pIC50 equal to or greater than 5 for this molecule? C[n+]1ccc2c3c(nc4cc5c(cc42)OCO5)-c2ccccc2-c31.[I-] label 1

Quick check, pIC50 >= 5? CC[n+]1ccc2c3c(nc4ccccc42)-c2ccccc2-c31.[I-] label 1

###

Tested on: Plasmodium falciparum
Assay: Antimalarial activity against Plasmodium falciparum D6 infected in RBC after 48 hrs by lactate dehydrogenase assay
Assay type: functional
Details: D6, 48 h
recorded.endpoint: IC50 (µg/mL)
Field: numeric (µg/mL). Do not append units.

Previously resolved entries follow.
COc1cc(C[n+]2ccc3ccnc4c3c2-c2ccccc2-4)cc(OC)c1.[Br-] :: 0.011
[Br-].c1ccc(C[n+]2ccc3c4c(nc5cc6c(cc53)OCO6)-c3ccccc3-c42)cc1 :: 0.0094
C[n+]1ccc2ccnc3c2c1-c1ccccc1-3.[I-] :: 0.06

Please find the next compound below.
Send back Plasmodium falciparum IC50 of [Br-].c1ccc(C[n+]2ccc3c4c(nc5ccccc53)-c3ccccc3-c42)cc1 only. 0.0415

###

Test system: Staphylococcus aureus
Test: Antimicrobial activity against methicillin-resistant Staphylococcus aureus
Type: functional
Criterion: IC50 strictly less than 20 µg/mL. Met: met. Not met: not met.

COc1cc(C[n+]2ccc3ccnc4c3c2-c2ccccc2-4)cc(OC)c1.[Br-] :: met
Cc1cc2c3c(nc4ccccc42)-c2ccccc2-c3[n+]1C.[I-] :: not met
Cc1ccc(C[n+]2ccc3ccnc4c3c2-c2ccccc2-4)cc1.[Br-] :: not met
C[n+]1c2c3c(nc(-c4ccccc4)cc3c3ccccc31)-c1ccccc1-2.[I-] :: met
CC[n+]1c2c3c(nc(-c4ccccc4)cc3c3ccccc31)-c1ccccc1-2.[Br-] :: met
[Br-].c1ccc(C[n+]2ccc3c4c(nc5ccccc53)-c3ccccc3-c42)cc1 :: not met

Let us examine a further case.
Hello, I'm reviewing records and need to know if IC50 of [Br-].c1ccc2c(c1)-c1nccc3cc[n+](Cc4ccc5ccccc5c4)c-2c13 is below 20 µg/mL. Could you check? not met

###

Test system: Staphylococcus aureus
Test: Antimicrobial activity against Staphylococcus aureus ATCC 6538
Format: functional
Label yes when IC50 is strictly below 5 µg/mL; at or above that, label no.

In plain terms, does CC[n+]1c2c3c(nc(-c4ccccc4)cc3c3ccccc31)-c1ccccc1-2.[Br-] come in under 5 µg/mL for IC50? yes

For this compound, is IC50 lower than 5 µg/mL? CC[n+]1ccc2ccnc3c2c1-c1ccccc1-3.[I-] no

Would you kindly verify if IC50 of C[n+]1ccc2cc(-c3ccccc3)nc3c2c1-c1ccccc1-3.[I-] is strictly less than 5 µg/mL? no

I'd appreciate it if you could check whether [Br-].c1ccc2c(c1)-c1nccc3cc[n+](Cc4ccc5ccccc5c4)c-2c13 has IC50 smaller than 5 µg/mL. no

IC50 under 5 µg/mL? Item: FC(F)(F)c1ccc(C[n+]2ccc3ccnc4c3c2-c2ccccc2-4)cc1.[Br-] no

# TODO verify IC50 < 5 µg/mL strictly for this compound: C[n+]1c2c3c(nc(-c4ccccc4)cc3c3ccccc31)-c1ccccc1-2.[I-] yes
